biological target: CysLT2 receptor (Homo sapiens, UniProt Q9NS75); assay: LTD4-induced calcium flux (calcium mobilization, FLIPR) in CysLT2 receptor-transfected cells; conditions: antagonist dose-response curve, read-out: IC50 of blocking LTD4-induced calcium flux, CysLT2 receptor
Sequence (Q9NS75 whole entry): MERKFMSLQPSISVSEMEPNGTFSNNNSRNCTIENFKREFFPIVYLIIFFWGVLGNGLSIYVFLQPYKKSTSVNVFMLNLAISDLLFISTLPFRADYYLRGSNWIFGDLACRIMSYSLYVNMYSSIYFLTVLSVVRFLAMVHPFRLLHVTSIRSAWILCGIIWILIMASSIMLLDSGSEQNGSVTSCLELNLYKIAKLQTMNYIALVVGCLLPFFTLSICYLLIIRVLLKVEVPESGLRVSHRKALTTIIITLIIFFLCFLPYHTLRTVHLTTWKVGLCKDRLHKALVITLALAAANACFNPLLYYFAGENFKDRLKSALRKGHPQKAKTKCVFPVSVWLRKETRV
pIC50: −log10 of the molar value.
readout-label: pIC50

>  <molecule>
CCCCCCCCCc1ccc(C(Sc2cccc(NC(=O)CC(=O)O)c2)C(=O)CCCC(=O)O)cc1 (stereo not shown) [Compound (I)]

>  <endpoint-result>
> 5.00

$$$$
